- testedTarget: Small ubiquitin-related modifier 1 (Homo sapiens, UniProt P63165)
- Sequence (P63165 whole entry): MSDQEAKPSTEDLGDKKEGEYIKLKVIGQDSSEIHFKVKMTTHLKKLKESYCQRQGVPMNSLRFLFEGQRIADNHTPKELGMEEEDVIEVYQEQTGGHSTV
- experiment: SUMO1 protein interaction blockers, potency – biochemical, fluorescence polarization, uHTS hits, dose response (AID 624382)
- Type: functional
- settings: read-out: IC50_Mean
Activity calls are given as the source filed them. No stated cut-off is given here; in the data, active = IC50 of 20 µM or less and inactive = more.
# output must be one of yes (active), no (inactive)

The examples below pair each entry with its known result.
O=C(Nc1ccc(C2=NCCN2)cc1)c1ccc(C(=O)Nc2ccc(C3=NCCN3)cc2)c(Cl)c1 ... no
COc1ccc(-n2c(SCC(=O)Nc3cccc(S(N)(=O)=O)c3)nc3ccccc3c2=O)cc1OC ... no
NC1=C2C(=O)c3ccccc3C(=O)C2=C(N)CC1 ... yes

Attention now turns to another entry.
Record lookup: outcome of this test for CCCCCCC(=O)Nc1nc(C)c(-c2csc(Nc3cc(OC)ccc3OC)n2)s1 ?
no
